assayed system: T1, FX activation peptide 12-mer … (human)
T1 sequence (peptide, C-terminally conjugated to biotin): DPTENPFDLLDF
protocol description: peptide ELISA
# reported ELISA signal relative to background; entries follow
API doc: respond with a numeric literal and nothing else, no unit.

Observe how each entry below is paired with its result.
Nb 701D07 (VHH, not shown: small tags and cut ends) VHH: EVQLVESGGGVVQPGGSLRLSCAASGGTLSRYAMGWFRQAPGKEREFVAAITRRGSRTYYADSVKGRFTISRDNSKNTVYLQMNSLRPEDTALYYCAADLAPGDYALDYWGQGTLVTVSS | 1.39
Nb 729C08 (VHH, not shown: small tags and cut ends) VHH: EVQLVESGGGVVQPGGSLRLSCAASGFTFSDYAMSWVRQAPGKGLEWVSGITGGGRTYYADSVKGRFTISRDNSKNTLYLQMNSLRPEDTALYYCAAAILTRTRRTYDYWGQGTLVTVSS | 1.95

Tell us which ELISA signal relative to background value is on record for Nb 701C06 (VHH, not shown: small tags and cut ends) VHH: EVQLVESGGGVVQPGGSLRLSCAASGRTFSTYAMGWFRQAPGKEREFVAAISRRGGRTYYADSVKGRFTISRDNSKNTVYLQMNSLRPEDTALYYCAADATARDGLLDYWGQGTLVTVSS
1.51

Tell us which ELISA signal relative to background value is on record for Nb 721E08 (VHH, not shown: small tags and cut ends) VHH: EVQLVESGGGVVQPGGSLRLSCAASGRTFSTYSMGWFRQAPGKEREFVAAITRRGSRTYYADSVKGRFTISRDNSKNTVYLQMNSLRPEDTALYYCAADRRPADSYLDYWGQGTLVTVSS
2.27

Tell us which ELISA signal relative to background value is on record for Nb 730C03 (VHH, not shown: small tags and cut ends) VHH: EVQLVESGGGVVQPGGSLRLSCVASGFTFSDYAMSWVRQAPGKGLEWVSGITSGSGRTYYADSVKGRFTISRDNSKNTVYLQMNSLRPEDTALYYCAAAILRGYRKTYDYWGQGTLVTVSS
1.68

All values here come from patent US20210054097A1.
